# assayed target: Mitochondrial complex I; NADH oxidoreductase (Bos taurus, UniProt P25708+P52505)
# Sequence (P25708 21-464 limits assumed, other chains not shown): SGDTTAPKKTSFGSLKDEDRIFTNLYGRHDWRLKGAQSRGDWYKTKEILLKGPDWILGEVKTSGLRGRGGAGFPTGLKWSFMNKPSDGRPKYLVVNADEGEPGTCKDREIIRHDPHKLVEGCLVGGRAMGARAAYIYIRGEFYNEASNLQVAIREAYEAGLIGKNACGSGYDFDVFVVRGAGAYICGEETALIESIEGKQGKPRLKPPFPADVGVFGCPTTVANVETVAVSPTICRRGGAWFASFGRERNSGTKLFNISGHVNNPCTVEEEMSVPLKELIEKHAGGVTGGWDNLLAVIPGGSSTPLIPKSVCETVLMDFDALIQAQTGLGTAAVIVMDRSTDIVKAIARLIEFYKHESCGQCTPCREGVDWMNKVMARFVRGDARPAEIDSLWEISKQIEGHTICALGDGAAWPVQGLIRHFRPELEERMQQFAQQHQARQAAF
# protocol notes: Inhibition of NADH oxidase activity.
measured attribute: pIC50
FYI, pIC50 means -log10 of a concentration in mol per litre.

- compound: "CCCCCC[C@H](CCC[C@@H](N=[N+]=[N-])[C@H]1CC[C@H]([C@H]2CC[C@H]([C@H](CCCCCCCCCCCCC3=C[C@H](C)OC3=O)N=[N+]=[N-])O2)O1)N=[N+]=[N-]"
  pIC50: 7.74
- compound: "CCCCCCCCCC[C@H](O)[C@H]1CC[C@@H]([C@@H]2CC[C@H]([C@H](O)CCCCCCCCCCC(=O)CC3=C[C@H](C)OC3=O)O2)O1"
  pIC50: 9.38

Prompt line: Name the recorded pIC50 for CCCCCCCCCC[C@H](O)[C@H]1CC[C@@H]([C@@H]2CC[C@H]([C@H](O)CCCCCCCC[C@@H](O)CC3=C[C@H](C)OC3=O)O2)O1 .
Response line: 9.48

Prompt line: I am curious: what pIC50 value has been reported for CCCCCCCCCC[C@H](O)[C@H]1CC[C@@H]([C@@H]2CC[C@H]([C@H](O)CCCCCCCCCC[C@@H](O)CC3=C[C@H](C)OC3=O)O2)O1 [rolliniastatin-1] ?
Response line: 9.22

Prompt line: Data request, read-out pIC50, for CCCCCCC(=O)CCC[C@H](O)[C@H]1CC[C@H]([C@H]2CC[C@H]([C@H](O)CCCCCCCCCCCCC3=C[C@H](C)OC3=O)O2)O1
Response line: 9.19

The origin of these recorded values is ChEMBL document CHEMBL1133548.
